A collection of compounds and their measured IC50 at 24 h
test: Cytotoxicity against human BJ cells assessed as reduction in cell viability incubated for 24 hrs by MTT assay; format: toxicity, cell-based
property: IC50 at 24 h

[[record]]
compound = "O=C(Nc1cccc(Cl)c1)N[C@H]1CCN(CCC(Oc2cccc(Cl)c2)c2ccccc2)C1 (stereo partly specified)"
property = "IC50 at 24 h"
experimentalresult = "6.25 µg/mL"

[[record]]
compound = "O=C(NCC1CCN(CCC(Oc2ccc(C(F)(F)F)cc2)c2ccccc2)CC1)Nc1cccc(Cl)c1 (racemic)"
property = "IC50 at 24 h"
experimentalresult = "3.12 µg/mL"

[[record]]
compound = "O=C(NCC1CCN(CCC(Oc2ccc(Cl)cc2)c2ccccc2)CC1)Nc1cccc(Cl)c1 (racemic)"
property = "IC50 at 24 h"
experimentalresult = "12.5 µg/mL"

[[record]]
compound = "O=C(Nc1cccc(Cl)c1)NC1CCN(CCC(Oc2cccc(C(F)(F)F)c2)c2ccccc2)CC1 (racemic)"
property = "IC50 at 24 h"
experimentalresult = "> 25 µg/mL"

[[record]]
compound = "O=C(Nc1cccc(Cl)c1)N[C@H]1CCN(CCC(Oc2ccc(C(F)(F)F)cc2)c2ccccc2)C1 (stereo partly specified)"
property = "IC50 at 24 h"
experimentalresult = "6.25 µg/mL"

[[record]]
compound = "COc1cccc2c1C(=O)c1c(O)c3c(c(O)c1C2=O)C[C@@](O)(C(=O)CO)C[C@@H]3O[C@H]1C[C@H](N)[C@H](O)[C@H](C)O1 [DOXORUBICIN]"
property = "IC50 at 24 h"
experimentalresult = "0.78 µg/mL"

[[record]]
compound = "O=C(NCC1CCN(CCC(Oc2cccc(Cl)c2)c2ccccc2)CC1)Nc1cccc(Cl)c1 (racemic)"
property = "IC50 at 24 h"
experimentalresult = "6.25 µg/mL"

[[record]]
compound = "O=C(Nc1cccc(Cl)c1)N[C@H]1CCN(CCC(Oc2ccc(Cl)cc2)c2ccccc2)C1 (stereo partly specified)"
property = "IC50 at 24 h"
experimentalresult = "6.25 µg/mL"

[[record]]
compound = "O=C(Nc1cccc(Cl)c1)NC1CCN(CCC(Oc2cccc(Cl)c2)c2ccccc2)CC1 (racemic)"
property = "IC50 at 24 h"
experimentalresult = "> 25 µg/mL"

[[record]]
compound = "O=C(Nc1cccc(Cl)c1)N[C@@H]1CCN(CCC(Oc2ccc(C(F)(F)F)cc2)c2ccccc2)C1 (stereo partly specified)"
property = "IC50 at 24 h"
experimentalresult = "3.12 µg/mL"

[[record]]
compound = "O=C(Nc1cccc(Cl)c1)NC1CCN(CCC(Oc2ccc(Cl)cc2)c2ccccc2)CC1 (racemic)"
property = "IC50 at 24 h"
experimentalresult = "12.5 µg/mL"


====

test system: Staphylococcus epidermidis; assay: Antibacterial activity against biofilm producer Staphylococcus epidermidis ATCC 35984 assessed as inhibition of bacterial growth incubated for 18 hrs by broth microdilution method; format: functional
property: MIC (µg/mL)

[[record]]
molecule = "CC(=O)NC[C@H]1CN(c2ccc(N3CCOCC3)c(F)c2)C(=O)O1 [LINEZOLID]"
property = "MIC"
experimentalresult = 1.56

[[record]]
molecule = "O=C(Nc1cccc(Cl)c1)NC1CCN(CCC(Oc2ccc(C(F)(F)F)cc2)c2ccccc2)CC1 (stereo not given)"
property = "MIC"
experimentalresult = 3.12

[[record]]
molecule = "O=C(Nc1cccc(Cl)c1)NC1CCN(CCC(Oc2ccc(Cl)cc2)c2ccccc2)CC1 (racemic)"
property = "MIC"
experimentalresult = 1.56

[[record]]
molecule = "O=C(Nc1cccc(Cl)c1)NC1CCN(CCC(Oc2cccc(C(F)(F)F)c2)c2ccccc2)CC1 (racemic)"
property = "MIC"
experimentalresult = 1.56

[[record]]
molecule = "O=C(Nc1cccc(Cl)c1)NC1CCN(CCC(Oc2ccccc2Cl)c2ccccc2)CC1 (racemic)"
property = "MIC"
experimentalresult = 3.12


====

Measured MIC by item
system: Staphylococcus aureus; experiment: Antibacterial activity against vancomycin-intermediate Staphylococcus aureus ATCC 700699 assessed as inhibition of bacterial growth incubated for 18 hrs by broth microdilution method; assay type: functional
property: MIC (µg/mL)

[[record]]
compound = "CC(=O)NC[C@H]1CN(c2ccc(N3CCOCC3)c(F)c2)C(=O)O1"
resultunits = "µg/mL"
limitqualifier = "="
experimentalresult = 1.56

[[record]]
compound = "O=C(Nc1cccc(Cl)c1)NC1CCN(CCC(Oc2cccc(Cl)c2)c2ccccc2)CC1 (racemic)"
resultunits = "µg/mL"
limitqualifier = "="
experimentalresult = 3.12

[[record]]
compound = "O=C(Nc1cccc(Cl)c1)NC1CCN(CCC(Oc2ccc(F)cc2)c2ccccc2)CC1 (racemic)"
resultunits = "µg/mL"
limitqualifier = "="
experimentalresult = 6.25

[[record]]
compound = "O=C(Nc1cccc(Cl)c1)N1CCN(CCC(Oc2ccc(C(F)(F)F)cc2)c2ccccc2)CC1 (racemic)"
resultunits = "µg/mL"
limitqualifier = ">"
experimentalresult = 12.5

[[record]]
compound = "O=C(Nc1cccc(Cl)c1)NC1CCN(CCC(Oc2ccccc2C(F)(F)F)c2ccccc2)CC1 (racemic)"
resultunits = "µg/mL"
limitqualifier = "="
experimentalresult = 3.12

[[record]]
compound = "O=C(NCC1CCN(CCC(Oc2ccc(Cl)cc2)c2ccccc2)CC1)Nc1cccc(Cl)c1 (racemic)"
resultunits = "µg/mL"
limitqualifier = "="
experimentalresult = 3.12

[[record]]
compound = "COc1ccc(OC(CCN2CCC(NC(=O)Nc3cccc(Cl)c3)CC2)c2ccccc2)cc1 (racemic)"
resultunits = "µg/mL"
limitqualifier = "="
experimentalresult = 6.25

[[record]]
compound = "O=C(Nc1cccc(Cl)c1)N[C@@H]1CCN(CCC(Oc2ccc(C(F)(F)F)cc2)c2ccccc2)C1 (some centres not stated)"
resultunits = "µg/mL"
limitqualifier = "="
experimentalresult = 3.12

[[record]]
compound = "O=C(Nc1cccc(Cl)c1)NC1CCN(CCC(Oc2ccc(C(F)(F)F)cc2)c2ccccc2)CC1 (configuration not stated)"
resultunits = "µg/mL"
limitqualifier = "="
experimentalresult = 6.25

[[record]]
compound = "O=C(Nc1cccc(Cl)c1)NC1CCN(CCC(Oc2ccccc2F)c2ccccc2)CC1 (racemic)"
resultunits = "µg/mL"
limitqualifier = "="
experimentalresult = 12.5

[[record]]
compound = "O=C(Nc1ccccc1)NC1CCN(CCC(Oc2ccc(C(F)(F)F)cc2)c2ccccc2)CC1 (racemic)"
resultunits = "µg/mL"
limitqualifier = ">"
experimentalresult = 12.5

[[record]]
compound = "O=C(NCC1CCN(CCC(Oc2ccc(C(F)(F)F)cc2)c2ccccc2)CC1)Nc1cccc(Cl)c1 (racemic)"
resultunits = "µg/mL"
limitqualifier = "="
experimentalresult = 6.25

[[record]]
compound = "COc1ccccc1OC(CCN1CCC(NC(=O)Nc2cccc(Cl)c2)CC1)c1ccccc1 (configuration not stated)"
resultunits = "µg/mL"
limitqualifier = ">"
experimentalresult = 12.5

[[record]]
compound = "O=C(Nc1ccc(Cl)cc1)NC1CCN(CCC(Oc2ccc(C(F)(F)F)cc2)c2ccccc2)CC1 (racemic)"
resultunits = "µg/mL"
limitqualifier = ">"
experimentalresult = 12.5

[[record]]
compound = "O=C(NCC1CCN(CCC(Oc2cccc(Cl)c2)c2ccccc2)CC1)Nc1cccc(Cl)c1 (racemic)"
resultunits = "µg/mL"
limitqualifier = "="
experimentalresult = 3.12

[[record]]
compound = "O=C(Nc1cccc(Cl)c1)N[C@H]1CCN(CCC(Oc2ccc(C(F)(F)F)cc2)c2ccccc2)C1 (some centres not stated)"
resultunits = "µg/mL"
limitqualifier = "="
experimentalresult = 1.56

[[record]]
compound = "O=C(Nc1cccc(Cl)c1)N[C@H]1CCN(CCC(Oc2cccc(Cl)c2)c2ccccc2)C1 (some centres not stated)"
resultunits = "µg/mL"
limitqualifier = "="
experimentalresult = 3.12

[[record]]
compound = "O=C(Nc1cccc(Cl)c1)NC1CCN(CCC(Oc2ccccc2Cl)c2ccccc2)CC1 (racemic)"
resultunits = "µg/mL"
limitqualifier = "="
experimentalresult = 6.25

[[record]]
compound = "O=C(Nc1cccc(Cl)c1)N[C@H]1CCN(CCC(Oc2ccc(Cl)cc2)c2ccccc2)C1 (some centres not stated)"
resultunits = "µg/mL"
limitqualifier = "="
experimentalresult = 1.56

[[record]]
compound = "COc1cccc(OC(CCN2CCC(NC(=O)Nc3cccc(Cl)c3)CC2)c2ccccc2)c1 (racemic)"
resultunits = "µg/mL"
limitqualifier = "="
experimentalresult = 12.5

[[record]]
compound = "O=C(Nc1cccc(Cl)c1)NC1CCN(CCC(Oc2cccc(C(F)(F)F)c2)c2ccccc2)CC1 (racemic)"
resultunits = "µg/mL"
limitqualifier = "="
experimentalresult = 3.12

[[record]]
compound = "O=C(Nc1ccc(F)cc1)NC1CCN(CCC(Oc2ccc(C(F)(F)F)cc2)c2ccccc2)CC1 (racemic)"
resultunits = "µg/mL"
limitqualifier = "="
experimentalresult = 6.25

[[record]]
compound = "O=C(Nc1cccc(F)c1)NC1CCN(CCC(Oc2ccc(C(F)(F)F)cc2)c2ccccc2)CC1 (configuration not stated)"
resultunits = "µg/mL"
limitqualifier = "="
experimentalresult = 6.25

[[record]]
compound = "O=C(Nc1cccc(Cl)c1)NC1CCN(CCC(Oc2cccc(F)c2)c2ccccc2)CC1 (racemic)"
resultunits = "µg/mL"
limitqualifier = "="
experimentalresult = 6.25

[[record]]
compound = "CN[C@H](CC(C)C)C(=O)N[C@H]1C(=O)N[C@@H](CC(N)=O)C(=O)N[C@H]2C(=O)N[C@H]3C(=O)N[C@H](C(=O)N[C@H](C(=O)O)c4cc(O)cc(O)c4-c4cc3ccc4O)[C@H](O)c3ccc(c(Cl)c3)Oc3cc2cc(c3O[C@@H]2O[C@H](CO)[C@@H](O)[C@H](O)[C@H]2O[C@H]2C[C@](C)(N)[C@H](O)[C@H](C)O2)Oc2ccc(cc2Cl)[C@H]1O"
resultunits = "µg/mL"
limitqualifier = "="
experimentalresult = 6.25

[[record]]
compound = "O=C(Nc1cccc(Cl)c1)NC1CCN(CCC(Oc2ccccc2)c2ccccc2)CC1 (racemic)"
resultunits = "µg/mL"
limitqualifier = "="
experimentalresult = 12.5

[[record]]
compound = "O=C(Nc1cccc(Cl)c1)NC1CCN(CCC(Oc2ccc(Cl)cc2)c2ccccc2)CC1 (racemic)"
resultunits = "µg/mL"
limitqualifier = "="
experimentalresult = 3.12

